System: A549-TUBA1B-RELA
test name: phenotypically active (imaging signature differs from DMSO and reproducible) at any of 0.3-9 uM (binary (1 = active, 0 = inactive)); higher = active
condition parameters: treatment time: 24 h
Counter-ions that a name gives are not always drawn.
Outcome codes: active, inactive

{"compound": "COc1cc(N2CCOCC2)ccc1Nc1ncc(Cl)c(Nc2ccccc2NS(C)(=O)=O)n1", "assigned category": "active"}
{"compound": "COc1cc(N2CCC(O)CC2)ccc1Nc1cc(Nc2ccccc2S(=O)(=O)C(C)C)c2cc[nH]c2n1 [Mps1-IN-1 dihydrochloride]", "assigned category": "active"}
{"compound": "CC1(C)CCC(c2ccc(Cl)cc2)=C(CN2CCN(c3ccc(C(=O)NS(=O)(=O)c4ccc(N[C@H](CCN5CCOCC5)CSc5ccccc5)c(S(=O)(=O)C(F)(F)F)c4)cc3)CC2)C1", "assigned category": "inactive"}
{"compound": "O=C(O)C(CO)c1ccccc1 (configuration not stated)", "assigned category": "inactive"}
{"compound": "COc1ccc(C(=O)C2CCN(CC(=O)N(Cc3nc4c(c(=O)[nH]3)COCC4)CC3CC3)CC2)cc1", "assigned category": "inactive"}
{"compound": "N=C(N)NN=Cc1c(Cl)cccc1Cl", "assigned category": "inactive"}
{"compound": "C[C@H](NC(=O)c1sccc1OCc1ccc(Cl)cc1)c1ccccc1", "assigned category": "inactive"}

* * *

System: A549-TUBA1B-RELA
test name: lowest phenotypically active concentration; higher = less potent
condition parameters: treatment time: 24 h
Where a name gives a salt, the structure may show the parent alone.
Reported lowest phenotypically active concentration is given for each of the following compounds.
value type: lowest phenotypically active concentration

{"compound": "COc1ccc(N(C)c2nc(C)nc3ccccc23)cc1 [MPC 6827 hydrochloride]", "target or test system": "A549-TUBA1B-RELA", "result": "≤ 0.3 µM"}
{"compound": "C[C@H]1C[C@@H]2[C@H]([C@@H](O)C[C@@]3(C)[C@H]2CC[C@]3(O)C(=O)CO)[C@@]2(C)C=CC(=O)C=C12 [methylprednisolone]", "target or test system": "A549-TUBA1B-RELA", "result": "≤ 0.3 µM"}
{"compound": "Cc1ccc([N+](=O)[O-])cc1S(=O)(=O)N(C)/N=C/c1cnc2ccc(Br)cn12", "target or test system": "A549-TUBA1B-RELA", "result": "≤ 0.3 µM"}

* * *

Tested on: HepG2-CANX-COX4
test name: lowest phenotypically active concentration; higher = less potent
condition parameters: treatment time: 24 h
This section presents molecules with their documented lowest phenotypically active concentration values.
value type: lowest phenotypically active concentration

{"molecule": "O=C1c2c(O)ccc(O)c2C(=O)c2c(NCCNCCO)ccc(NCCNCCO)c21 [mitoxantrone]", "target or test system": "HepG2-CANX-COX4", "result": "≤ 0.3 µM"}
{"molecule": "C[C@H]1COCCN1c1cc(C2(S(=O)(=O)C3CC3)CC2)nc(-c2ccc(NC(=S)NCCO)cc2)n1", "target or test system": "HepG2-CANX-COX4", "result": "≤ 0.3 µM"}
{"molecule": "Cc1c(CN2CCN(C(=O)[C@H](C)O)CC2)sc2c(N3CCOCC3)nc(-c3cnc(N)nc3)nc12", "target or test system": "HepG2-CANX-COX4", "result": "≤ 0.3 µM"}

* * *

System: WPMY1-CANX-COX4
test name: phenotypically active (imaging signature differs from DMSO and reproducible) at any of 0.3-9 uM (binary (1 = active, 0 = inactive)); higher = active
condition parameters: treatment time: 24 h

{"compound": "CCOC(=O)c1ccc(N2NC(=O)/C(=C/c3ccc([N+](=O)[O-])o3)C2=O)cc1", "phenotypically active": "1 (active)"}
{"compound": "O=C(COc1cccc2c(=O)[nH]ccc12)c1ccccc1", "phenotypically active": "0 (inactive)"}
{"compound": "CN1c2ccc([N+](=O)[O-])cc2N=C(c2ccc(C(=O)O)cc2)c2cc3c(cc21)C(C)(C)CCC3(C)C", "phenotypically active": "0 (inactive)"}
{"compound": "O=C(CCc1ccc(O)cc1)c1c(O)cc(O)cc1O[C@@H]1O[C@H](CO)[C@@H](O)[C@H](O)[C@H]1O [Phloridzin]", "phenotypically active": "0 (inactive)"}

* * *

Below, each entry is listed alongside its reported phenotypically active.
Tested on: A549-GM130-SQSTM1
test name: phenotypically active (imaging signature differs from DMSO and reproducible) at any of 0.3-9 uM (binary (1 = active, 0 = inactive)); higher = active
condition parameters: treatment time: 24 h

{"compound": "CC1(C)O[C@@H]2C[C@H]3[C@@H]4C[C@H](F)C5=CC(=O)C=C[C@]5(C)[C@@]4(F)[C@@H](O)C[C@]3(C)[C@]2(C(=O)CO)O1 [fluocinolone acetonide]", "phenotypically active": 1}
{"compound": "CC(=O)N[C@@H](CC(=O)O)C(=O)N[C@@H](CCC(=O)O)C(=O)O", "phenotypically active": 0}
{"compound": "CC(C)NCCCn1c(Sc2cc3c(cc2I)OCO3)nc2c(N)ncnc21", "phenotypically active": 1}
{"compound": "CC(=O)O[C@@]12CO[C@@H]1C[C@H](O)[C@@]1(C)C(=O)[C@H](O)C3=C(C)[C@@H](OC(=O)[C@H](O)[C@@H](NC(=O)OC(C)(C)C)c4ccccc4)C[C@](O)([C@@H](OC(=O)c4ccccc4)[C@H]21)C3(C)C", "phenotypically active": 1}
{"compound": "Cc1nc(Nc2ncc(C(=O)Nc3c(C)cccc3Cl)s2)cc(N2CCN(CCO)CC2)n1", "phenotypically active": 1}
{"compound": "COc1cc(C)c(/C=C/C(C)=C/C=C/C(C)=C/C(=O)O)c(C)c1C", "phenotypically active": 0}

* * *

System: A549-CANX-COX4
test name: phenotypically active (imaging signature differs from DMSO and reproducible) at any of 0.3-9 uM (binary (1 = active, 0 = inactive)); higher = active
condition parameters: treatment time: 24 h
Possible outcomes: yes (1) = active, no (0) = inactive

{"compound": "N[C@@H](CSC(c1ccccc1)(c1ccccc1)c1ccccc1)C(=O)O", "assigned category": "no (0)"}
{"compound": "NCCCC[C@H](N[C@@H](CCc1ccccc1)C(=O)O)C(=O)N1CCC[C@H]1C(=O)O", "assigned category": "no (0)"}
{"compound": "COC(=O)C1=C(C)NC(C)=C(C(=O)OC(C)C)C1c1cccc2nonc12 (stereo unspecified)", "assigned category": "no (0)"}
{"compound": "CCCCCCCCCN1C[C@H](O)[C@@H](O)[C@H](O)[C@H]1CO", "assigned category": "no (0)"}
{"compound": "C[C@]12CC[C@@H]3c4ccc(O)cc4CC[C@H]3[C@@H]1CC[C@@H]2O", "assigned category": "no (0)"}
{"compound": "COc1ccc2cc1Oc1ccc(cc1)C[C@H]1c3cc(c(OC)cc3CCN1C)Oc1c(OC)c(OC)cc3c1[C@H](C2)N(C)CC3", "assigned category": "yes (1)"}
{"compound": "O=C(/C=C\\c1ccc(O)c(O)c1)O[C@H]1C[C@](OC(=O)/C=C/c2ccc(O)c(O)c2)(C(=O)O)C[C@H](O)[C@H]1O", "assigned category": "no (0)"}
{"compound": "O=C(NCCN1CCC(n2c(=O)[nH]c3ccccc32)CC1)c1cc2cc(F)ccc2[nH]1", "assigned category": "no (0)"}
{"compound": "COc1cc2c(NC3CCN(C)CC3)nc(N3CCCN(C)CC3)nc2cc1OCCCN(C)C", "assigned category": "no (0)"}
{"compound": "O=C1N(c2ccccc2)c2ccccc2C1(Cc1ccncc1)Cc1ccncc1", "assigned category": "no (0)"}
{"compound": "Cc1cccc(C)c1OCC(C)N (stereo unspecified)", "assigned category": "yes (1)"}

* * *

System: A549-GM130-SQSTM1
test name: lowest phenotypically active concentration; higher = less potent
condition parameters: treatment time: 24 h
value type: lowest phenotypically active concentration (µM)

{"smiles representation": "Clc1ccc(N/N=C(\\c2ccccc2)c2ccccn2)nc1", "sign": "≤", "result number": 0.3}
{"smiles representation": "Cc1ccc(C(=O)N(CCCN)[C@@H](c2oc3cc(Cl)ccc3c(=O)c2Cc2ccccc2)C(C)C)cc1", "sign": "≤", "result number": 0.3}
{"smiles representation": "NC(=O)C(c1ccccc1)(c1ccccc1)[C@@H]1CCN(CCc2ccc3c(c2)CCO3)C1", "sign": "=", "result number": 9}
{"smiles representation": "COc1c(C)cnc(Cn2cc(C#CCC(C)(C)O)c3c(Cl)nc(N)nc32)c1C", "sign": "≤", "result number": 0.3}
{"smiles representation": "O=C(Nc1nc2cc(C(F)(F)F)cc(NC3CC3)n2n1)c1cccnc1", "sign": "=", "result number": 3}
{"smiles representation": "O=C(O)c1ccc(Nc2ncc3c(n2)-c2ccc(Cl)cc2C(c2c(F)cccc2F)=NC3)cc1", "sign": "≤", "result number": 0.3}
{"smiles representation": "COc1c(Nc2cc(C)[nH]n2)nc(Sc2ccc(S(=O)(=O)Cc3cccc([N+](=O)[O-])c3F)cc2F)nc1N1CCOCC1", "sign": "=", "result number": 1}
{"smiles representation": "Nc1nc(S)c2[nH]cnc2n1", "sign": "=", "result number": 9}
{"smiles representation": "O=C(CCCCCCC(=O)Nc1ccccc1)NO", "sign": "=", "result number": 1}
{"smiles representation": "CC(C)n1c(/C=C/[C@@H](O)C[C@@H](O)CC(=O)O)c(-c2ccc(F)cc2)c2ccccc21", "sign": "=", "result number": 9}
{"smiles representation": "Cn1cc(C2=C(c3ccc(Cl)cc3Cl)C(=O)NC2=O)c2ccccc21", "sign": "≤", "result number": 0.3}
